Papp at 18 h, 25 ug/ml: recorded values
assay: in vitro; settings: PAMPA
Description: Effective permeability of compound in PBS/EtOH buffer (7:3) at 25 ug/ml incubated for 18 hrs by PAMPA-BBB assay
measured-parameter: Papp at 18 h, 25 ug/ml (×10⁻⁶ cm/s)

{"compound-smiles": "CCn1cc(C(=O)O)c(=O)c2ccc(-n3cccc3)cc21", "endpoint-value": 2.5}
{"compound-smiles": "NC(=O)c1sc(-c2ccnc(NC(=O)C3CC3)c2)nc1OCCCC1CCN(Cc2ccccc2F)CC1", "endpoint-value": 7.1}
{"compound-smiles": "NC(=O)c1sc(-c2ccnc(NC(=O)C3CC3)c2)nc1OCCC1CCN(Cc2cccc(F)c2)CC1", "endpoint-value": 7}

---

Readings of Cmax for the listed molecules
test: Cmax in Sprague-Dawley rat at 10 mg/kg, po measured upto 24 hrs by LC-MS/MS analysis; assay type: ADME, organism-based; set-up: route oral, dose 10 mg/kg, time <=24; conditions: in vivo

{"compound-smiles": "NC(=O)c1sc(-c2ccnc(NC(=O)C3CC3)c2)nc1OCCCC1CCN(Cc2ccc(F)cc2)CC1", "unit-info": "ng/mL", "Cmax": 132}
{"compound-smiles": "NC(=O)c1sc(-c2ccnc(NC(=O)C3CC3)c2)nc1OCC1CCN(Cc2ccccc2)CC1", "unit-info": "ng/mL", "Cmax": 67.3}
{"compound-smiles": "NC(=O)c1sc(-c2ccnc(NC(=O)C3CC3)c2)nc1OCCCC1CCN(Cc2ccccc2)CC1", "unit-info": "ng/mL", "Cmax": 44.1}

---

biological target: Cyclin-dependent kinase 7 (Homo sapiens, UniProt P50613); assay: Inhibition of CDK7 (unknown origin) by ATP competitive based analysis
Sequence (P50613 whole entry): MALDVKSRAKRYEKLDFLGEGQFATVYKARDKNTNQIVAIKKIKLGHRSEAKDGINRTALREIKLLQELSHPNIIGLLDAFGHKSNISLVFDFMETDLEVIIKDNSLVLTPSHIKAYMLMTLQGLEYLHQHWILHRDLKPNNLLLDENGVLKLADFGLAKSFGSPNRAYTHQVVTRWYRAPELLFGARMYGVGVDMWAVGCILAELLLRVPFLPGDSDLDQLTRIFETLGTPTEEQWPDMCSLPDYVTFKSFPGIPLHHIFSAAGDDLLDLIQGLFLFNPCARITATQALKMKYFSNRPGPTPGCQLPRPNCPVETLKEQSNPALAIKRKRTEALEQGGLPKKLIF

{"compound-smiles": "NC(=O)c1sc(-c2ccnc(NC(=O)C3CC3)c2)nc1OCCCC1CCN(Cc2ccc(F)cc2)CC1", "IC50": "> 300 nM"}

---

assay: Volume of distribution in Sprague-Dawley rat at 5 mg/kg, iv measured upto 24 hrs by LC-MS/MS analysis; type: ADME, organism-based; conditions: in vivo
Reported Vd values are given for each entry in this list.

{"compound-smiles": "NC(=O)c1sc(-c2ccnc(NC(=O)C3CC3)c2)nc1OCCCC1CCN(Cc2ccc(F)cc2)CC1", "Vd [L/kg]": 15.8}
{"compound-smiles": "NC(=O)c1sc(-c2ccnc(NC(=O)C3CC3)c2)nc1OCCCC1CCN(Cc2ccccc2)CC1", "Vd [L/kg]": 30.7}

---

Reported AUC(0-inf) values follow for various compounds
assay: AUC (0 to infinity) in Sprague-Dawley rat at 10 mg/kg, po by LC-MS/MS analysis; assay type: ADME, organism-based; set-up: route oral, time infinity, dose 10 mg/kg; conditions: in vivo

{"compound-smiles": "NC(=O)c1sc(-c2ccnc(NC(=O)C3CC3)c2)nc1OCCCC1CCN(Cc2ccccc2)CC1", "AUC(0-inf)": "453 ng·h/mL"}
{"compound-smiles": "NC(=O)c1sc(-c2ccnc(NC(=O)C3CC3)c2)nc1OCC1CCN(Cc2ccccc2)CC1", "AUC(0-inf)": "688 ng·h/mL"}
{"compound-smiles": "NC(=O)c1sc(-c2ccnc(NC(=O)C3CC3)c2)nc1OCCCC1CCN(Cc2ccc(F)cc2)CC1", "AUC(0-inf)": "1260 ng·h/mL"}

---

experiment: Half life in Sprague-Dawley rat at 10 mg/kg, po measured upto 24 hrs by LC-MS/MS analysis; type: ADME, organism-based; conditions: in vivo
measured-parameter: half-life (h)

{"compound-smiles": "NC(=O)c1sc(-c2ccnc(NC(=O)C3CC3)c2)nc1OCCCC1CCN(Cc2ccc(F)cc2)CC1", "measured-parameter": "half-life", "endpoint-value": 5.8}
{"compound-smiles": "NC(=O)c1sc(-c2ccnc(NC(=O)C3CC3)c2)nc1OCC1CCN(Cc2ccccc2)CC1", "measured-parameter": "half-life", "endpoint-value": 4.5}
{"compound-smiles": "NC(=O)c1sc(-c2ccnc(NC(=O)C3CC3)c2)nc1OCCCC1CCN(Cc2ccccc2)CC1", "measured-parameter": "half-life", "endpoint-value": 3.9}

---

biological target: UniProt P49841; assay: biochemical
Sequence (P49841 whole entry): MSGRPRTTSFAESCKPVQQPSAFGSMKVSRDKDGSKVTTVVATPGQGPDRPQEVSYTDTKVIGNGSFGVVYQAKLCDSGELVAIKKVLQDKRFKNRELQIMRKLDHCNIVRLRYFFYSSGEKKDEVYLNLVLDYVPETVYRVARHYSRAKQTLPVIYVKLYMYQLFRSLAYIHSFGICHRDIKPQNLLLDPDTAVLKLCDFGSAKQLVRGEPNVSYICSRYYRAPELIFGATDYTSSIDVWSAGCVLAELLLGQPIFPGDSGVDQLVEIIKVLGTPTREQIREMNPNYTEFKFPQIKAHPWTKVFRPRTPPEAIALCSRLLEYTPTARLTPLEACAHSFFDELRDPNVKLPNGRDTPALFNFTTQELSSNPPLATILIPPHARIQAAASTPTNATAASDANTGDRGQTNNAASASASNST
Description: Inhibition of recombinant human N-terminal His6-tagged GSK3beta H350L mutant expressed in baculovirus infected Sf21 cells using prephosphorylated polypeptide as substrate incubated for 1 min followed by substrate addition and measured after 30 mins by Kinase-Glo luminescence assay
pIC50: −log10 of the molar value.
Examples of compounds with documented pIC50 follow.

{"compound": "NC(=O)c1sc(-c2ccnc(NC(=O)C3CC3)c2)nc1O", "modifier": "=", "pIC50": 7.96}
{"compound": "NC(=O)c1sc(-c2ccnc(NC(=O)C3CC3)c2)nc1OCCC1CCN(Cc2ccc(F)cc2)CC1", "modifier": "=", "pIC50": 7.42}
{"compound": "CNC(=O)c1sc(-c2ccnc(NC(=O)C3CC3)c2)nc1OCC1CCN(Cc2cccc([N+](=O)[O-])c2)CC1", "modifier": "=", "pIC50": 8.30}
{"compound": "NC(=O)c1sc(-c2ccnc(NC(=O)C3CC3)c2)nc1OCCCC1CCN(Cc2ccccc2F)CC1", "modifier": "=", "pIC50": 7.82}
{"compound": "CNC(=O)c1sc(-c2ccnc(NC(=O)C3CC3)c2)nc1OCC1CCN(Cc2ccc(Cl)cc2)CC1", "modifier": "=", "pIC50": 7.35}
{"compound": "NC(=O)c1sc(-c2ccnc(NC(=O)C3CC3)c2)nc1OCCC1CCN(Cc2ccccc2)CC1", "modifier": "=", "pIC50": 7.72}
{"compound": "NC(=O)c1sc(-c2ccnc(NC(=O)C3CC3)c2)nc1OCCCC1CCN(Cc2ccccc2)CC1", "modifier": "=", "pIC50": 8.10}
{"compound": "NC(=O)c1sc(-c2ccnc(NC(=O)C3CC3)c2)nc1OCC1CCN(Cc2ccccc2)CC1", "modifier": "=", "pIC50": 7.03}
{"compound": "NC(=O)c1sc(-c2ccnc(NC(=O)C3CC3)c2)nc1OCCCC1CCN(Cc2cccc(F)c2)CC1", "modifier": "=", "pIC50": 8.05}
{"compound": "CNC(=O)c1sc(-c2ccnc(NC(=O)C3CC3)c2)nc1OCC1CCN(Cc2ccc(Br)cc2)CC1", "modifier": "=", "pIC50": 7.59}
{"compound": "NC(=O)c1sc(-c2ccnc(NC(=O)C3CC3)c2)nc1OCCCC1CCN(Cc2ccc(F)cc2)CC1", "modifier": "=", "pIC50": 8.52}
{"compound": "CNC(=O)c1sc(-c2ccnc(NC(=O)C3CC3)c2)nc1OCC1CCN(Cc2ccc(F)c(F)c2)CC1", "modifier": "=", "pIC50": 7.21}
{"compound": "NC(=O)c1sc(-c2ccnc(NC(=O)C3CC3)c2)nc1OCCC1CCN(Cc2ccccc2Cl)CC1", "modifier": "=", "pIC50": 7.57}
{"compound": "COc1cc2c(cc1OC)C(=O)C(CC1CCN(Cc3ccccc3)CC1)C2 (stereo not drawn)", "modifier": "<", "pIC50": 6.00}
{"compound": "CNC(=O)c1sc(-c2ccnc(NC(=O)C3CC3)c2)nc1OCC1CCN(Cc2ccccc2F)CC1", "modifier": "=", "pIC50": 7.85}
{"compound": "NC(=O)c1sc(-c2ccnc(NC(=O)C3CC3)c2)nc1OCCC1CCN(Cc2ccccc2F)CC1", "modifier": "=", "pIC50": 6.58}
{"compound": "NC(=O)c1sc(-c2ccnc(NC(=O)C3CC3)c2)nc1OCCC1CCN(Cc2ccc(F)c(F)c2)CC1", "modifier": "=", "pIC50": 8.00}
{"compound": "CNC(=O)c1sc(-c2ccnc(NC(=O)C3CC3)c2)nc1OCC1CCN(Cc2ccc(Cl)c(Cl)c2)CC1", "modifier": "=", "pIC50": 7.39}

---

target: Mitogen-activated protein kinase 14 (Homo sapiens); experiment: Inhibition of p38MAPK alpha (unknown origin) by ATP competitive based analysis
Sequence (Q16539 whole entry): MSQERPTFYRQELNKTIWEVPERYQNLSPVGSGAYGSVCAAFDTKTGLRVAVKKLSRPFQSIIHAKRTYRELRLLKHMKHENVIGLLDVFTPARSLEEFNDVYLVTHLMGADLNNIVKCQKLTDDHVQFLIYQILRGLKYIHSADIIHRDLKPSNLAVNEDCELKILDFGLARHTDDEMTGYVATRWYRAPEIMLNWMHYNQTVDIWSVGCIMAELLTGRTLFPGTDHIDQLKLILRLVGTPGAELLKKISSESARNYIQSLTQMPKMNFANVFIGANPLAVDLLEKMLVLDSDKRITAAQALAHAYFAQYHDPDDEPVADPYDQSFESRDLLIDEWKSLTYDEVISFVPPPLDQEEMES
measured-parameter: IC50

{"compound-smiles": "NC(=O)c1sc(-c2ccnc(NC(=O)C3CC3)c2)nc1OCCCC1CCN(Cc2ccc(F)cc2)CC1", "test-target": "Mitogen-activated protein kinase 14 (Homo sapiens)", "measured-parameter": "IC50", "endpoint-value": "> 300 nM"}

---

target: Cyclin-dependent kinase 6 (Homo sapiens)
Sequence (Q00534 whole entry): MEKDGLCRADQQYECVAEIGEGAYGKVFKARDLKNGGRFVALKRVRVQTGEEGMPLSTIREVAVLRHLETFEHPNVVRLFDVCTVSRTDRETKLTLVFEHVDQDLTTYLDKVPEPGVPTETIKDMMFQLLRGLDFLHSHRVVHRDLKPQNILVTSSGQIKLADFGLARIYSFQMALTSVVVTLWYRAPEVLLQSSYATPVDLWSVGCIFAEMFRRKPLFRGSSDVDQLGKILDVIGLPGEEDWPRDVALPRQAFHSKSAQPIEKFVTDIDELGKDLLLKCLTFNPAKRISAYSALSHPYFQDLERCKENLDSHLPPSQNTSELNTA
pIC50: −log10 of the molar value.
measured-parameter: pIC50

{"compound-smiles": "NC(=O)c1sc(-c2ccnc(NC(=O)C3CC3)c2)nc1OCCCC1CCN(Cc2ccc(F)cc2)CC1", "measured-parameter": "pIC50", "endpoint-value": "< 6.52"}

---

test: AUC (0 to 24 hrs) in Sprague-Dawley rat at 5 mg/kg, iv measured upto 24 hrs by LC-MS/MS analysis; type: ADME, organism-based; set-up: route intravenous, dose 5 mg/kg, time <=24; settings: in vivo
measured-parameter: AUC(0-t)

{"compound-smiles": "NC(=O)c1sc(-c2ccnc(NC(=O)C3CC3)c2)nc1OCCCC1CCN(Cc2ccc(F)cc2)CC1", "measured-parameter": "AUC(0-t)", "endpoint-value": "1960 ng·h/mL"}
{"compound-smiles": "NC(=O)c1sc(-c2ccnc(NC(=O)C3CC3)c2)nc1OCCCC1CCN(Cc2ccccc2)CC1", "measured-parameter": "AUC(0-t)", "endpoint-value": "1680 ng·h/mL"}
